Test system: LK-2 (Squamous Cell Lung Carcinoma);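 further: after 72 h of two-drug dosing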
Assay: Bliss excess, mean over the matrix (fraction); higher = more synergy
# Lookup of reported Bliss excess keyed by entry

| Compound | Bliss excess |
| --- | --- |
| C=CCn1c(=O)c2cnc(Nc3ccc(N4CCN(C)CC4)cc3)nc2n1-c1cccc(C(C)(C)O)n1 [AZD1775] + Nc1ccn([C@@H]2O[C@H](CO)[C@@H](O)C2(F)F)c(=O)n1 [Gemcitabine] (first compound max 1 µM, partner max 0.3 µM) | 0.117 |
| CN(CCO)CC[C@H](CSc1ccccc1)Nc1ccc(S(=O)(=O)NC(=O)c2ccc(N3CCC([C@@H](O)c4ccccc4-c4ccc(Cl)cc4)CC3)cc2)cc1S(=O)(=O)C(F)(F)F [AZD4320] + C=CCn1c(=O)c2cnc(Nc3ccc(N4CCN(C)CC4)cc3)nc2n1-c1cccc(C(C)(C)O)n1 [AZD1775] (first compound max 1 µM, partner max 1 µM) | 0.0105 |
| CCN(CCO)CCCOc1ccc2c(Nc3cc(CC(=O)Nc4cccc(F)c4)[nH]n3)ncnc2c1 [AZD2811] + C=CCn1c(=O)c2cnc(Nc3ccc(N4CCN(C)CC4)cc3)nc2n1-c1cccc(C(C)(C)O)n1 [AZD1775] (first compound max 1 µM, partner max 1 µM) | -0.0952 |
| C=CCn1c(=O)c2cnc(Nc3ccc(N4CCN(C)CC4)cc3)nc2n1-c1cccc(C(C)(C)O)n1 [AZD1775] + C[C@@H]1COCCN1C2=NC(=NC(=C2)C3(CC3)[S@](=N)(=O)C)C4=C5C=CNC5=NC=C4 [AZD6738] (first compound max 1 µM, partner max 10 µM) | -0.0086 |
| CC(=O)c1c(C)c2cnc(Nc3ccc(N4CCNCC4)cn3)nc2n(C2CCCC2)c1=O [Palbociclib] + CC1(C)CCC(CN2CCN(c3ccc(C(=O)NS(=O)(=O)c4ccc(NCC5CCOCC5)c([N+](=O)[O-])c4)c(Oc4cnc5[nH]ccc5c4)c3)CC2)=C(c2ccc(Cl)cc2)C1 [Venetoclax] (first compound max 10 µM, 7x7, partner max 1 µM) | -0.0179 |
| Cn1cnc2c(F)c(Nc3ccc(Br)cc3Cl)c(C(=O)NOCCO)cc21 [Selumetinib] + C[C@@H]1COCCN1C2=NC(=NC(=C2)C3(CC3)[S@](=N)(=O)C)C4=C5C=CNC5=NC=C4 [AZD6738] (first compound max 10 µM, 7x7, partner max 10 µM) | 0.0613 |
| COc1nnc2ccc(N3CCC(c4ccc(OCCN5CCN(C)C(=O)[C@H]5C)cc4)CC3)nn12 [AZD5153] + C=CCn1c(=O)c2cnc(Nc3ccc(N4CCN(C)CC4)cc3)nc2n1-c1cccc(C(C)(C)O)n1 [AZD1775] (first compound max 1 µM, partner max 1 µM) | 0.0029 |
| Cc1c2c(nn1C)CSCc1cc(n(C)n1)CSc1cc(c3ccccc3c1)OCCCc1c(C(=O)O)n(C)c3c-2c(Cl)ccc13 [AZD5991] + CC1(C)CCC(CN2CCN(c3ccc(C(=O)NS(=O)(=O)c4ccc(NCC5CCOCC5)c([N+](=O)[O-])c4)c(Oc4cnc5[nH]ccc5c4)c3)CC2)=C(c2ccc(Cl)cc2)C1 [Venetoclax] (first compound max 1 µM, 7x7, partner max 1 µM) | 0.0293 |
| Cc1c2c(nn1C)CSCc1cc(n(C)n1)CSc1cc(c3ccccc3c1)OCCCc1c(C(=O)O)n(C)c3c-2c(Cl)ccc13 [AZD5991] + CCN(CCO)CCCOc1ccc2c(Nc3cc(CC(=O)Nc4cccc(F)c4)[nH]n3)ncnc2c1 [AZD2811] (first compound max 1 µM, 7x7, partner max 1 µM) | -0.0115 |
| COc1cc2c(cc1OCCCCCOc1cc3c(cc1OC)C(=O)N1C=C(C)C[C@H]1C=N3)N=C[C@@H]1CC(C)=CN1C2=O [SG3199] + O=C(c1cc(Cc2n[nH]c(=O)c3ccccc23)ccc1F)N1CCN(C(=O)C2CC2)CC1 [Olaparib] (first compound max 0.001 µM, 7x7, partner max 10 µM) | -0.0137 |
| CN(CCO)CC[C@H](CSc1ccccc1)Nc1ccc(S(=O)(=O)NC(=O)c2ccc(N3CCC([C@@H](O)c4ccccc4-c4ccc(Cl)cc4)CC3)cc2)cc1S(=O)(=O)C(F)(F)F [AZD4320] + C[C@@H](Nc1cc(F)cc(F)c1)c1cc(C(=O)N(C)C)cc2c(=O)cc(N3CCOCC3)oc12 [AZD8186] (first compound max 1 µM, 7x7, partner max 3 µM) | -0.0056 |
| NC1(C(=O)N[C@@H](CCO)c2ccc(Cl)cc2)CCN(c2ncnc3[nH]ccc23)CC1 [Capivasertib] + Cn1cnc2c(F)c(Nc3ccc(Br)cc3Cl)c(C(=O)NOCCO)cc21 [Selumetinib] (first compound max 10 µM, 7x7, partner max 10 µM) | 0.0313 |
| CCN(CCO)CCCOc1ccc2c(Nc3cc(CC(=O)Nc4cccc(F)c4)[nH]n3)ncnc2c1 [AZD2811] + O=C(c1cc(Cc2n[nH]c(=O)c3ccccc23)ccc1F)N1CCN(C(=O)C2CC2)CC1 [Olaparib] (first compound max 1 µM, 7x7, partner max 10 µM) | -0.0329 |
| N#Cc1cnc(Nc2cc(NC[C@H]3CNCCO3)c(C(F)(F)F)cn2)cn1 [SRA737] + Nc1ccn([C@@H]2O[C@H](CO)[C@@H](O)C2(F)F)c(=O)n1 [Gemcitabine] (first compound max 10 µM, 7x7, partner max 0.3 µM) | 0.141 |
